Data origin: ChEMBL document CHEMBL1139172

Recorded measurements of EC50, one per entry
Biological target: Lutropin-choriogonadotropic hormone receptor (Homo sapiens, UniProt P22888)
Sequence (P22888 whole entry): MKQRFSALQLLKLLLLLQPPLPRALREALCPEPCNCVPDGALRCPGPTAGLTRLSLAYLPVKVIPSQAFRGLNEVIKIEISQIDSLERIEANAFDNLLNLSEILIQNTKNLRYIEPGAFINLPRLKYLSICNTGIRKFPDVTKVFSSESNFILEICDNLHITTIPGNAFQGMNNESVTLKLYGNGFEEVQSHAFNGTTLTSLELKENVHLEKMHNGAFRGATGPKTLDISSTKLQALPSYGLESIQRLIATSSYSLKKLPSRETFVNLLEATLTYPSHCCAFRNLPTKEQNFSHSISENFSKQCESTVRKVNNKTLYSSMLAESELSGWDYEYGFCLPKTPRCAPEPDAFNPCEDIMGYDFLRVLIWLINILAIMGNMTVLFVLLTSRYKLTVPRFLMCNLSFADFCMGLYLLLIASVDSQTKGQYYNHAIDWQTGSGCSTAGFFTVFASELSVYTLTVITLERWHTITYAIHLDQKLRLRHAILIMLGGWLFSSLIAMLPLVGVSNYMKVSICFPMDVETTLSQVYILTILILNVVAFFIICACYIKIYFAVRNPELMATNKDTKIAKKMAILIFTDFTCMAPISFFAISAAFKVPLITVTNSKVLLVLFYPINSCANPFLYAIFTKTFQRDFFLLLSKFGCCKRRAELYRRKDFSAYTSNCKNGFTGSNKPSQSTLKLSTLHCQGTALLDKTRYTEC
Assay: Agonist activity at human LH receptor expressed in CHO cells assessed as production of cAMP after 60 mins by SPA
value_kind: EC50 (nM)

CC(C)(C)c1ccc(-n2nc(CCCCC(=O)N[C@@H](Cc3ccc(O)cc3)C(N)=O)cc2-c2ccncc2)cc1 :: 2300
CC(C)(C)c1ccc(-n2nc(-c3ccccn3)cc2CCCCCC(=O)N[C@@H](Cc2cccc(O)c2)C(N)=O)cc1 :: 150
CC(C)(C)c1ccc(-n2nc(-c3ccccn3)cc2CCCCCC(=O)N[C@H](C(N)=O)c2ccc(O)cc2)cc1 :: 170
CC(C)(C)c1ccc(-n2nc(-c3cc4ccccc4cn3)cc2-c2cccc(C(=O)N[C@@H](Cc3ccc(O)cc3)C(N)=O)c2)cc1 :: 500
CC(C)(C)c1ccc(-n2nc(-c3ccncc3)cc2CCCCC(=O)N[C@@H](Cc2ccc(O)cc2)C(N)=O)cc1 :: 250
CC(C)(C)c1ccc(-n2nc(-c3ccncc3)cc2CCCCC(=O)N[C@H](CC(N)=O)Cc2ccc(O)cc2)cc1 :: 190
